Method notes: gradient 5% acetonitrile 3 min, to 50% in 2 min, to 85% in 15 min, held 3 min, 100 µL/min
Run parameters: column: Zorbax Extend-C18 2.1 x 50 mm; eluents: water / acetonitrile, 0.1% formic acid
Measurement kind: RP-LC retention time (s)

- O=C(NC1CCc2ccccc21)C1CCN(C(=O)c2ncn3c2COC(c2ccc(F)cc2)C3)CC1 (centres undefined): 792
- O=C(Nc1cccc(Cl)c1)C(=O)c1cn(CC(=O)N2CCCC2)c2ccccc12: 1020
- COC(=O)C1=C(C)NC2=C(C(=O)c3ccccc32)C1c1cccc(OC)c1 (centres undefined): 917
- Cc1ccc2c(c1)C(=O)NC1(CCN(C(=O)c3ccc(F)c(F)c3)CC1)N2C: 795
- COc1ccccc1NC(=O)N1CCN(CCn2c(C(F)(F)F)nc3cccnc32)CC1: 630
- O=C(NCC1CCCO1)C1CCN(C(=O)c2cccn2-c2cccnc2)CC1 (centres undefined): 602
- CCC(C(=O)N1CCOCC1)n1c2ccccc2c2cnn(C)c(=O)c21 (centres undefined): 764
- O=C(NCc1csc(C2CCN(C(=O)Cc3ccc(Cl)cc3)CC2)n1)C1CCC1: 784
- CCc1nc(-c2cccc(-c3noc(COc4ccc(F)cc4)n3)c2)cs1: 1290
- Cc1ccc(-c2noc(Cn3cnc4c(cnn4-c4ccc(Br)cc4)c3=O)n2)cc1: 1250
- COc1cc(NC(=O)N2CCC(CC(=O)N3CCN(c4ccccn4)CC3)CC2)cc(OC)c1OC: 576
- O=C(Nc1ccc2c(c1)CN(C(=O)COc1ccccc1)CCO2)C1CC1: 752
- COc1ccc(NC(=O)c2cn(-c3cc(N4CCC(C)CC4)ncn3)cn2)c(OC)c1: 1150
- Cc1c(Cl)cccc1NC(=O)N1CCCC(C)(C(=O)NCc2ccccc2)C1 (centres undefined): 1010
- Cc1ccc2[nH]cc(CCNC(=O)c3ccc4nc(C(C)C)oc4c3)c2c1: 925
- Cc1cc2c(cc1S(=O)(=O)N1CCCC1C(=O)NCc1ccccc1)OCC(=O)N2 (centres undefined): 721
- CCCn1cnc2cc(-c3noc(CNC(=O)c4ccc(C)cc4)n3)ccc21: 687
- CCCNC(=O)C1CCCN(c2ccc(SCC(=O)Nc3cc(F)ccc3Cl)nn2)C1 (centres undefined): 748
- O=C(c1csc(N2CCCCCC2)n1)N1CCOCC1: 767
